meta.source: patent US20120178742A1

# targetEntity: human metabotropic glutamate receptor mGluR5 (Homo sapiens, UniProt P41594)
# Sequence (P41594 21-1212): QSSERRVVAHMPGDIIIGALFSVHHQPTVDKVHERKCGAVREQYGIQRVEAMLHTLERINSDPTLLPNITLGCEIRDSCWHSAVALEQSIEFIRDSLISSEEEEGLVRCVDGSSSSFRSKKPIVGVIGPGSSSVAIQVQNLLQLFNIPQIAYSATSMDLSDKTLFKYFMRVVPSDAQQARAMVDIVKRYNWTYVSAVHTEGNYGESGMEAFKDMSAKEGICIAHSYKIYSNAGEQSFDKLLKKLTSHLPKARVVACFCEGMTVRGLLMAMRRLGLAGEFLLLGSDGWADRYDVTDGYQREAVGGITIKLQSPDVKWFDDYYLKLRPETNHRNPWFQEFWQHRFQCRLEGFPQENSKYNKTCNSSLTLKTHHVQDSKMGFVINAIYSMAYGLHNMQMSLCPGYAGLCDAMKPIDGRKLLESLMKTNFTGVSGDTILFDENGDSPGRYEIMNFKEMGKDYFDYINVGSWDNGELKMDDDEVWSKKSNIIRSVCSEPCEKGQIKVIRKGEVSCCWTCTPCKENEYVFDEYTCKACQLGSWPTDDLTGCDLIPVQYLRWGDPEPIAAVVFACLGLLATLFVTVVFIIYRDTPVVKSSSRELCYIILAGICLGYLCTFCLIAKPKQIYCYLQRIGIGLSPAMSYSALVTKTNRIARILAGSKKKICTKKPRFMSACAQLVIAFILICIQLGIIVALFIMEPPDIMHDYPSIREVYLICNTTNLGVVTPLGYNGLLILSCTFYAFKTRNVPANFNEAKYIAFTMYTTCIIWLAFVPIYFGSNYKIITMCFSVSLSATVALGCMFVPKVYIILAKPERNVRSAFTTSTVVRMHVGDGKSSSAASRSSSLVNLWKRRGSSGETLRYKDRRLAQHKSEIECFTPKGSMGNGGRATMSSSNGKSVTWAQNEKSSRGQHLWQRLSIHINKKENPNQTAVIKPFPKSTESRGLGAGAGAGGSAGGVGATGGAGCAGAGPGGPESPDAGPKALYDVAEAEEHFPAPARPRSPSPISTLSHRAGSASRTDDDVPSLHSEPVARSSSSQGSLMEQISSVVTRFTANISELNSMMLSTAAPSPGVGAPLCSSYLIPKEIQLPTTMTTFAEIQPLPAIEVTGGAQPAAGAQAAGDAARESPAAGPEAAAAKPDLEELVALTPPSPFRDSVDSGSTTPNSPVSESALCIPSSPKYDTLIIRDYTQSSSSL
# testDescription: Cytosolic calcium studies with stably transfected cells (CHO-K1)
Response field class: string, computed from recorded EC50 by ranges low interval = under 300 nM, middle interval = from 300 nM up to 600 nM, high interval = 600 nM and over

Fc1cccc(F)c1C#Cc1cnc2nccnc2c1: high interval

Quick check: band for Cc1ccccc1C#Cc1cnc2ncsc2c1
high interval

Quick check: band for C(#Cc1cnc2ccnn2c1)Cc1ccccc1
low interval

Quick check: band for Cc1ccccc1C#Cc1cnc2cccnc2c1 [Example 94, 3-(o-Tolylethynyl)-[1,5]naphthyridine]
middle interval

---

# targetEntity: human metabotropic glutamate receptor mGluR5 (Homo sapiens, UniProt P41594)
# testDescription: Cytosolic calcium studies with stably transfected cells (CHO-K1)
valueKind: EC50 (µM)
Enter your answer as a number in µM; do not include the unit.

Recorded EC50, per entry:
C(#Cc1ccc2nc(-c3ccco3)nn2c1)c1ccccc1: 0.41
O=C(c1nc2ncc(C#Cc3ccccc3)cc2o1)N1CCCCC1: 0.15
C(#Cc1cnc2ccnn2c1)C1=CCSCC1: 0.11

// returns reported EC50 for input C(#Cc1cnc2ccnn2c1)C1=CCCCC1
0.023
